Origin of values: the DeepSol protein solubility set

Assay: soluble on expression in E. coli; label from the status in PepcDB or PDB records
PROPERTY MEASURED: soluble on expression in E. coli

Solved cases (5 shown):
| SEQ | PROPERTY MEASURED | DATA VALUE |
| --- | --- | --- |
| MGHHHHHHSHMPKVKRSRKAPPDGWELIEPTLDELDQKMREAETEPHEGKRKVESLWPIFRIHHQKTRYIFDLFYKRKAISRELYEYCIKEGYADKNLIAKWKKQGYENLCCLRCIQTRDTNFGTNCICRVPKSKLEVGRIIECTHCGCRGCSG | soluble on expression in E. coli | soluble |
| QKKDTSNHFHVFVGDLSPEITTEDIKAAFAPFGRISDARVVKDMATGKSKGYGFVSFFNKWDAENAIQQMGGQWLGGRQIRTNWATRKPPAPKSTYESNTKQ | soluble on expression in E. coli | soluble |
| MIMNIFLIKEADLVEAAEIISASFKNYEVMRYLFNDSGNDHEAHITEFFLAFYQFGLANNWPCYGVRVNEQWVAVALGCNSSEQEIIKGSDDALTEFYKKISPQACCRIEQYDQQADAAHPSKAHFFIDSIGTHPDHQGKGYAKALILKFQELSKSDVHSTGVGLNTESDNNINFYQHLGYQVKAQQKIGSLTSWSLFRTDD | soluble on expression in E. coli | not soluble |
| MGSDKIHHHHHHYKKKFSGEILCAALWGVNLLIGTDSGLMLLDRSGQGKVYPLISRRRFDQMTVLEGQNILATISGRKRRIRVYYLSWLRQKILRTEGAGSANTTEKRNGWVNVGDLQGAIHFKIVRYERIKFLVVGLESSIEIYAWAPKPYHKFMSFKSFGSLSHVPLIVDLTVEDNARLKVLYGSTGGFHAIDLDSAAVYDIYTPAQSGQTTTPHCIVVLPNSNGMQLLLCYDNEGVYVNTYGRMTKNVVLQWGEMPSSVAYISTGQIMGWGNKAIEIRSVDTGHLDGVFMHKKAQKLKFLCERNDKVFFSSAKGGGSCQIYFMTLNKPGLTNW | soluble on expression in E. coli | not soluble |
| AAYEAELLGRVGLMSHLTRRLHESAKLNPHRVIYAACENPSVLKAAVSARAHGIARPIMLGDEKQIRDFAAELDLSLEGIEIVNYRSDEEKARRHHYARVFAEQNWRRGGNHTEALDKMFDPNYFGMMMVRLGDADAMITGIYSKHSYLAEVAKQTVGLQEGVGHFATMHMVSLKNGPLFLADTLINHNLSAEALVDIAVMAYEKAHCFGVKPVLAIVGFSDFGADSDADSTVEAAKAVAILHEKYPYILVDGEMRVSLALHAEKRDKQYPQNKIKGRNANVLIFPRLSAANACYQLLREADDAEEVLGPIQIGLAKPVYFADHDATVSDILNITAMAVLDSHACLI | soluble on expression in E. coli | soluble |

Kindly consider the entry below.
Consider the sequence shown here: MGSDKIHHHHHHMSNFLLEAGRQTLMLELQEASRLPERLGDDFIRAAETIIHCEGKLIVSGIGKSGHIGKKLAATFASTGTPAFFVHPAEALHGDLGMLDSRDVMLFISYSGSAKELDLIVPRLEEKGIPLLAMTGKSTSPLALAAKAVLDIAVEREACPMHLAPTSSTVNTLMLGDALAMAVMQARGFNEEDFARSHPAGALGARLLNKVHHLMRRDEEVPRVNTEANVMDAMLELSRTGLGLVAVCDEANRVQGVFTDGDLRRWLVAGGTLNDGVTRAMTRNGVTLQADSRAVEAKERLMKHKISAAPVVDENGQLVGAINLQNFYQAGIL What is its recorded soluble on expression in E. coli?
not soluble
